compounds and their reported melting point

Some solved cases for reference:
Cc1ccc(C2=NOC(c3cn(-c4ccccc4)nc3-c3ccc4ccccc4c3)C2)cc1 (stereo not drawn) [Compound 5c] ... 181 to 182 °C
COc1ccc(C2=NNC(c3cn(-c4ccccc4)nc3-c3ccc4ccccc4c3)C2)cc1 (stereo not drawn) [Compound 3b] ... 177 to 178 °C
COc1ccc(C2=NN(C(N)=S)C(c3cn(-c4ccccc4)nc3-c3ccc4ccccc4c3)C2)cc1 (stereo not drawn) [Compound 6b] ... 193 to 194 °C
Cc1ccc(C2=NN(C(N)=S)C(c3cn(-c4ccccc4)nc3-c3ccc4ccccc4c3)C2)cc1 (stereo not drawn) [Compound 6c] ... 184 to 185 °C
COc1ccc(C2=NN(c3ccccc3)C(c3cn(-c4ccccc4)nc3-c3ccc4ccccc4c3)C2)cc1 (stereo not drawn) [Compound 4b] ... 156 to 157 °C
c1ccc(C2=NNC(c3cn(-c4ccccc4)nc3-c3ccc4ccccc4c3)C2)cc1 (stereo not drawn) [Compound 3a] ... 172 to 173 °C
Cc1ccc(C(=O)/C=C/c2cn(-c3ccccc3)nc2-c2ccc3ccccc3c2)cc1 [Compound 2c] ... 146 to 147 °C
c1ccc(C2=NOC(c3cn(-c4ccccc4)nc3-c3ccc4ccccc4c3)C2)cc1 (stereo not drawn) [Compound 5a] ... 190 to 191 °C
O=C(/C=C/c1cn(-c2ccccc2)nc1-c1ccc2ccccc2c1)c1ccc(Cl)c(Cl)c1 [Compound 2e] ... 168 to 169 °C
O=C(/C=C/c1cn(-c2ccccc2)nc1-c1ccc2ccccc2c1)c1ccc(Cl)cc1 [Compound 2d] ... 161 to 162 °C

Please report the recorded melting point for NC(=S)N1N=C(c2ccccc2)CC1c1cn(-c2ccccc2)nc1-c1ccc2ccccc2c1 (stereo not drawn) [Compound 6a] .
198 to 199 °C

Please report the recorded melting point for Clc1ccc(C2=NN(c3ccccc3)C(c3cn(-c4ccccc4)nc3-c3ccc4ccccc4c3)C2)cc1 (stereo not drawn) [Compound 4d] .
192 to 193 °C

Please report the recorded melting point for NC(=S)N1N=C(c2ccc(Cl)c(Cl)c2)CC1c1cn(-c2ccccc2)nc1-c1ccc2ccccc2c1 (stereo not drawn) [Compound 6e] .
180 to 181 °C

Please report the recorded melting point for O=C(/C=C/c1cn(-c2ccccc2)nc1-c1ccc2ccccc2c1)c1ccccc1 [Compound 2a] .
158 to 159 °C
